ASSAY SYSTEM: Nae I (Lentzea aerocolonigenes)
Sequence (P50187 whole entry): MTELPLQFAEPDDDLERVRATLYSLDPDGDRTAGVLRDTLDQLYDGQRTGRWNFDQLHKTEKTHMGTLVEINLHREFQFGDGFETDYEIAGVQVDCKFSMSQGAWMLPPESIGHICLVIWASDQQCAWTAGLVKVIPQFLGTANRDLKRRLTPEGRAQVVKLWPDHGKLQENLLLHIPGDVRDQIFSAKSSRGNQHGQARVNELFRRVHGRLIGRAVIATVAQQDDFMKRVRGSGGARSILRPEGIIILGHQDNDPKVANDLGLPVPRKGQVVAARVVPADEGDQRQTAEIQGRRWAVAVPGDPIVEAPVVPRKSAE
PROTOCOL DESCRIPTION: Activation of Nae I cleavage of M13mp18 RFI DNA
Assay type: biochemical, Nocardia aerocolonigenes
Parameters: key: ++++: full activation; ++: about 50% activation; -: no activation
TEST READOUT: Activation of Nae I cleavage of M13mp18 RF1 DNA

RECORD SEQUENCE: CTGGTGGTGGGCGCCGGC (chemistry not given here) [Oligonucleotide duplex 5]
RESULT: -

RECORD SEQUENCE: GCGCCGGCGG (chemistry not given here) [Oligonucleotide duplex 4]
RESULT: -

RECORD SEQUENCE: TGGTGGGCGCCGGCGGTGTGGGCA (TTGGTGGGCGCCGGCGGTGTGGGCA; chemistry not given here) [Oligonucleotide duplex 2]
RESULT: ++++

RECORD SEQUENCE: GCCGGCGGTGTGGGCAGCTGGTG (chemistry not given here) [Oligonucleotide duplex 6]
RESULT: -
